biological target: Amyloid-beta precursor protein (Homo sapiens, UniProt P05067); test: Inhibition of HFIP-pretreated amyloid beta (1 to 42) (unknown origin) self-induced aggregation at 25 uM after 48 hrs by thioflavin-T fluorescence assay relative to control
Sequence (P05067 whole entry): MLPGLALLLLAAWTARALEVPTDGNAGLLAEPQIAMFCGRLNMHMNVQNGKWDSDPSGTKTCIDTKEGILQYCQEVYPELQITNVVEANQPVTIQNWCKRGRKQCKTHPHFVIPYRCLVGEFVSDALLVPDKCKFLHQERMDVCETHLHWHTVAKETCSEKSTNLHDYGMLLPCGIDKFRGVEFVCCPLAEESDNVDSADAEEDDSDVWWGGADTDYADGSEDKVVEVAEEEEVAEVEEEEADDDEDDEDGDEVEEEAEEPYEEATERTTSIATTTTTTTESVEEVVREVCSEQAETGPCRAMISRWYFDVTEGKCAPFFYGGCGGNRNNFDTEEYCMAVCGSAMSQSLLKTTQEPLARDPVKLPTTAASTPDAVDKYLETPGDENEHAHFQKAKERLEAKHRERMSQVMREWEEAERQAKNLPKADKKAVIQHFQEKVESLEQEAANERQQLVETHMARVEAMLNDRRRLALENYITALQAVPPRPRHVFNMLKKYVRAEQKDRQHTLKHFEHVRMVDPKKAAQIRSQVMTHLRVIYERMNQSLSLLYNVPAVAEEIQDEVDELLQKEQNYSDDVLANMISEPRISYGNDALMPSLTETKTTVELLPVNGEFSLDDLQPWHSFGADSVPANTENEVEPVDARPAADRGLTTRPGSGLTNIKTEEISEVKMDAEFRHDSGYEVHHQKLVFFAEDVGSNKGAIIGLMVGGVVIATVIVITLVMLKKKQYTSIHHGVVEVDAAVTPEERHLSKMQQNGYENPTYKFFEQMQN
experimentalEndpoint: inhibition (%)
Numbers only, in %.

COc1cc2c(cc1OC)C(=O)/C(=C/c1ccc(N3CCN(c4ncccn4)CC3)cc1)C2    81.6
COc1cc2c(cc1OC)C(=O)/C(=C/c1ccc(N3CCN(Cc4ccc5c(c4)OCO5)CC3)cc1)C2    64.5
COc1cc2c(cc1OC)C(=O)/C(=C/c1ccc(N3CCN(c4ccc(Cl)cc4)CC3)cc1)C2    59.5
COc1cc2c(cc1OC)C(=O)/C(=C/c1ccc(N3CCN(C(=O)c4ccoc4)CC3)cc1)C2    80.4
COc1cc2c(cc1OC)C(=O)/C(=C/c1ccc(N3CCN(c4ccc(C(F)(F)F)cc4)CC3)cc1)C2    64.2

Let us move to another entry and its inhibition.
Sample COc1cc2c(cc1OC)C(=O)/C(=C/c1ccc(N3CCN(Cc4ccccc4)CC3)cc1)C2 ; inhibition observed: 48.5

From: ChEMBL document CHEMBL3877279
